- subject of test: T1, monkey CD22 protein (ACROBiosystems, catalog number SI2-R52Ha) (monkey, UniProt F6W485 20-688)
- T1 construct: commercial protein; also called monkey CD22-ECD; monkey CD22-ECD-His
- T1 sequence: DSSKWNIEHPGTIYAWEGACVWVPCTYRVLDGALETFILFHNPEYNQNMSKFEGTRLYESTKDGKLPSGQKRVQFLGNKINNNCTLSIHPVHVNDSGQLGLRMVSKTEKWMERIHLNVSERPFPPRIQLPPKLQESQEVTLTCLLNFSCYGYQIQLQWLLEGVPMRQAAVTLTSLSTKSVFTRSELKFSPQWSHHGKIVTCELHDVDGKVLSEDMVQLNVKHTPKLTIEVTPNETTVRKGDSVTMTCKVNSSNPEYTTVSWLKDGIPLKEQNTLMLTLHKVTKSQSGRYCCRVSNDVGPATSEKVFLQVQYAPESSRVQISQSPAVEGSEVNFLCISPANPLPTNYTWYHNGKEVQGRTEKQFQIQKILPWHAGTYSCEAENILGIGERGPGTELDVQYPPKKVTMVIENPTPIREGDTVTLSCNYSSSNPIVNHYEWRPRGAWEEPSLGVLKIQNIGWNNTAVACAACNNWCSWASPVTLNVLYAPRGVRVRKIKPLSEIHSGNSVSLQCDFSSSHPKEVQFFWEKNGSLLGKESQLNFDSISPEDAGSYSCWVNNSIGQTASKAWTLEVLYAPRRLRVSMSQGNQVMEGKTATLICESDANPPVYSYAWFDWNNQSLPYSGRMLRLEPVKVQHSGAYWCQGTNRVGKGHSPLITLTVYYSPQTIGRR
- experiment: ELISA, coated monkey CD22 protein, antibody 100 nM
Attribute: OD450
Answer in OD450, number only, no unit symbol.

Use these answered entries as a reference point.
binder: HA22-hIgG1 (antibody, V domains shown) VH: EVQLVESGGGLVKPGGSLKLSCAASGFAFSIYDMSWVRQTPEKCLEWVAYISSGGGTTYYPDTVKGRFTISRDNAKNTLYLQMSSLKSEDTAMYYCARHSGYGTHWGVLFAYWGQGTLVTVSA VL: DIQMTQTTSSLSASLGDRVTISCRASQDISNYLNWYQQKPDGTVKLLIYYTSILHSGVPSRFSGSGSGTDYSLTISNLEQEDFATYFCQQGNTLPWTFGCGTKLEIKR
observed result: 2.2
--
binder: F2.121.9 (antibody, human IgG1, lambda, V domains shown, human-murine chimeric IgG1 lambda) VH: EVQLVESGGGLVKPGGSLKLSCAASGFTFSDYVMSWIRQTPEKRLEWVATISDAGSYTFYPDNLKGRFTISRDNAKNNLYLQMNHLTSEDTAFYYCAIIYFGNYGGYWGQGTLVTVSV VL: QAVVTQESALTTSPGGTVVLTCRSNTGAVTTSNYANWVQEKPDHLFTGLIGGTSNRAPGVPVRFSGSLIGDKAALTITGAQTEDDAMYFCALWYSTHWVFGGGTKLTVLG
observed result: 0.72
--
binder: F1.257.3 (antibody, human IgG1, kappa, V domains shown, human-murine chimeric IgG1 kappa; VL name legible) VH: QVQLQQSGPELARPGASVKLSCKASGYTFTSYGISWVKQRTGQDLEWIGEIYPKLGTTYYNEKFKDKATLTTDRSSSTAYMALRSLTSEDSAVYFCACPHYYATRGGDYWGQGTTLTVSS VL: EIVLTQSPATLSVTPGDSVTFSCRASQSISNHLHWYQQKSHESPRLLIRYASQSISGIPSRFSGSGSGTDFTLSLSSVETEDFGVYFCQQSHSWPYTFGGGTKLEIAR
observed result: 0.18
--
binder: F1.7.6 (antibody, human IgG1, kappa, V domains shown, human-murine chimeric IgG1 kappa; VL name legible) VH: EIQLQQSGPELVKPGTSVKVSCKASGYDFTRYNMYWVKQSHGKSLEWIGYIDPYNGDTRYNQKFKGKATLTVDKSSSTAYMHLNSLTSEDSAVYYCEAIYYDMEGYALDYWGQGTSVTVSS VL: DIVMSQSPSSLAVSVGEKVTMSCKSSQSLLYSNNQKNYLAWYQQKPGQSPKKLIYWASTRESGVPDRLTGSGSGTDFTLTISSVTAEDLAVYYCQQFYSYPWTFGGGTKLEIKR
observed result: 0.44

Shift focus to the following entry.
Problem: Tell me OD450 reported for F2.180.16 (antibody, human IgG1, lambda, V domains shown, human-murine chimeric IgG1 lambda) VH: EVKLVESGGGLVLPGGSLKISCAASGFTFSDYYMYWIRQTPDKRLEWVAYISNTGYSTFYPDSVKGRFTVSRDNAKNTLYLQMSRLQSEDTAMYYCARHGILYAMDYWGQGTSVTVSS VL: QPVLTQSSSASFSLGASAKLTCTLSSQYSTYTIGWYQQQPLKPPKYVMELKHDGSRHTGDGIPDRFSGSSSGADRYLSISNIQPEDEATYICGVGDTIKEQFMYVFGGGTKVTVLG
Solution: 0.06
